These entries and their values trace back to patent US11629139B2.

# System: vesicular stomatitis virus particles (VSV) pseudotyped with EboV Zaire GP
# Test Name: microbe, parasite or virus in culture
# Type: cell-based
# Experimental Parameters: Vesicular stomatitis virus
pIC50: −log10 of the molar value.
Experimental Endpoint: pIC50

Molecule: O=C(Cc1cccc2ccccc12)NCC(=O)N1CCN(Cc2ccccc2OCc2ccc(Br)cc2)CC1
Experimental Endpoint: pIC50
Cmp: <
Measured Result: 5.70

Molecule: NC(=O)Nc1ccc(Br)cc1CN1CCN(C(=O)CNC(=O)CC2CCC(F)(F)CC2)CC1
Experimental Endpoint: pIC50
Cmp: <
Measured Result: 5.70

Molecule: O=C(CC12CC3CC(CC(C3)C1)C2)NCC(=O)N1CCN(Cc2cc(Cl)cc(C(F)(F)F)c2)CC1
Experimental Endpoint: pIC50
Cmp: =
Measured Result: 6.04

Molecule: O=C(CC12CC3CC(C1)C(C3)C2)NCC(=O)N1CCN(Cc2cc(F)ccc2OCc2ccc3nonc3c2)CC1
Experimental Endpoint: pIC50
Cmp: =
Measured Result: 7.60

Molecule: CS(=O)(=O)c1ccc(Oc2cc(Cl)cc(CN3CCN(C(=O)CNC(=O)CC4CCC(F)(F)CC4)CC3)c2)cc1
Experimental Endpoint: pIC50
Cmp: <
Measured Result: 6.00

Molecule: O=C(NCC(=O)N1CCN(Cc2cc(Cl)ccc2NCc2ncco2)CC1)[C@@H]1CC12CCC(F)(F)CC2
Experimental Endpoint: pIC50
Cmp: =
Measured Result: 5.89

Molecule: Nc1ccc(Cl)cc1CN1CCN(C(=O)CNC(=O)C2CC23CCCC3)CC1 (stereo not drawn)
Experimental Endpoint: pIC50
Cmp: =
Measured Result: 6.62

Molecule: [2H]C([2H])(c1cc(Cl)ccc1NCc1ccc(S(C)(=O)=O)cc1F)N1CCN(C(=O)CNC(=O)[C@@H]2CC23CCC(F)(F)CC3)CC1
Experimental Endpoint: pIC50
Cmp: =
Measured Result: 7.89

* * *

# Test system: vesicular stomatitis virus particles (VSV) pseudotyped with EboV Zaire GP
# Test Name: microbe, parasite or virus in culture
# Format: cell-based
# Experimental Parameters: Vesicular stomatitis virus
pIC50: −log10 of the molar value.
Below, each entry is listed with its recorded pIC50.

Molecule: Nc1ccc(CN2CCN(C(=O)CNC(=O)C3CC34CCC(F)(F)CC4)CC2)cc1Cl (centres unmarked)
Tested On: vesicular stomatitis virus particles (VSV) pseudotyped with EboV Zaire GP
Cmp: =
pIC50: 5.96

Molecule: CS(=O)(=O)c1ccc(COc2ccc(Cl)cc2CN2CCN(C(=O)CNC(=O)C3CC34CCCCC4)CC2)cc1 (centres unmarked)
Tested On: vesicular stomatitis virus particles (VSV) pseudotyped with EboV Zaire GP
Cmp: =
pIC50: 7.00

Molecule: COC(=O)c1ccc(COc2ccc(C)cc2CN2CCN(C(=O)CNC(=O)CC34CC5CC(CC(C5)C3)C4)CC2)cc1
Tested On: vesicular stomatitis virus particles (VSV) pseudotyped with EboV Zaire GP
Cmp: >
pIC50: 5.70

Molecule: Nc1ccc(Cl)cc1CN1CCN(C(=O)CNC(=O)C2CC23CCC(F)(F)CC3)CC1 (centres unmarked)
Tested On: vesicular stomatitis virus particles (VSV) pseudotyped with EboV Zaire GP
Cmp: =
pIC50: 7.00

Molecule: N#Cc1cc(Br)cc(CN2CCN(C(=O)CNC(=O)CC34CC5CC(CC(C5)C3)C4)CC2)c1
Tested On: vesicular stomatitis virus particles (VSV) pseudotyped with EboV Zaire GP
Cmp: =
pIC50: 5.89

Molecule: [2H]C([2H])(c1cc(Cl)ccc1NCc1cocn1)N1CCN(C(=O)CNC(=O)[C@@H]2CC23CCC(F)(F)CC3)CC1
Tested On: vesicular stomatitis virus particles (VSV) pseudotyped with EboV Zaire GP
Cmp: =
pIC50: 6.82

Molecule: O=C(CC12CC3CC(CC(C3)C1)C2)NCC(=O)N1CCN(Cc2cc(Cl)cc(Cl)c2Cl)CC1
Tested On: vesicular stomatitis virus particles (VSV) pseudotyped with EboV Zaire GP
Cmp: =
pIC50: 6.10

* * *

# System: vesicular stomatitis virus particles (VSV) pseudotyped with EboV Zaire GP
# Test Name: microbe, parasite or virus in culture
# Format: cell-based
# Experimental Parameters: Vesicular stomatitis virus
Below, each entry is listed with its recorded log10(IC50).
Experimental Endpoint: log10(IC50) (log10 of the value in µM)

Molecule: CN(C)c1ccc(CN2CCN(C(=O)CNC(=O)CC34CC5CC(CC(C5)C3)C4)CC2)cc1Cl [Compound 1251]
log10(IC50): 0.23

Molecule: CC1(CC(=O)NCC(=O)N2CCN(Cc3ccccc3OCc3ccc(Br)cc3)CC2)CCCCC1 [Compound 1142]
log10(IC50): -0.28

Molecule: COC(=O)c1ccc(COc2ccccc2CN2CCN(C(=O)CNC(=O)Cc3ccc(F)cc3)CC2)cc1 [Compound 1312]
log10(IC50): -0.22

Molecule: Nc1ccc(Cl)cc1CN1CCN(C(=O)CNC(=O)CC23CC4CC(CC(C4)C2)C3)CC1 [Compound 1321]
log10(IC50): -1.05

Molecule: O=C(CC12CC3CC(CC(C3)C1)C2)NCC(=O)N1CCN(Cc2cc(F)c(F)cc2Cl)CC1 [Compound 1353]
log10(IC50): 0.18

Molecule: COC(=O)c1ccc(COc2ccc(F)cc2CN2CCN(C(=O)CNC(=O)CC3CCC(F)(F)CC3)CC2)cc1 [Compound 1335]
log10(IC50): -1.74

Molecule: COC(=O)c1ccc(COc2ccc(Br)cc2CN2CCN(C(=O)CNC(=O)CC34CC5CC(CC(C5)C3)C4)CC2)cc1 [Compound 1111]
log10(IC50): -1.89

Molecule: CC(=O)N1CCC(Oc2cc(F)cc(CN3CCN(C(=O)CNC(=O)C4CC45CCC(F)(F)CC5)CC3)c2)CC1 (centres unmarked) [Compound 1442]
log10(IC50): -0.22

Molecule: [2H]C([2H])(c1cc(Cl)ccc1N)N1CCN(C(=O)CNC(=O)CC2CCC(F)(F)CC2)CC1 [Compound 1412]
log10(IC50): -0.89

Molecule: O=C(CC12CC3CC(C1)C(C3)C2)NCC(=O)N1CCN(Cc2cc(Cl)cc(OC(F)(F)F)c2)CC1 [Compound 1330]
log10(IC50): 0.18

Molecule: COC(=O)c1ccc(COc2ccccc2CN2CCN(C(=O)CNC(=O)C3CC3(C)C)CC2)cc1 (centres unmarked) [Compound 1317]
log10(IC50): -0.40

Molecule: COC(=O)c1ccc(COc2ccc(Cl)cc2CN2CCN(C(=O)CNC(=O)CC3(C)CCCCC3)CC2)cc1 [Compound 1334]
log10(IC50): -1.72

Molecule: COC(=O)c1ccc(COc2ccc(OC)cc2CN2CCN(C(=O)CNC(=O)CC34CC5CC(CC(C5)C3)C4)CC2)cc1 [Compound 1115]
log10(IC50): 0.15

Molecule: O=C(CC1CCC(F)(F)CC1)NCC(=O)N1CCN(Cc2cc(Br)ccc2O)CC1 [Compound 1400]
log10(IC50): -0.17

Molecule: [2H]C([2H])(c1cc(Cl)ccc1NCc1ccc(C(=O)OC)nc1)N1CCN(C(=O)CNC(=O)C2CC23CCC(F)(F)CC3)CC1 (centres unmarked) [Compound 1549]
log10(IC50): -1.30

* * *

# System: vesicular stomatitis virus particles (VSV) pseudotyped with EboV Zaire GP
# Test Name: microbe, parasite or virus in culture
# Type: cell-based
# Experimental Parameters: Vesicular stomatitis virus
pIC50: −log10 of the molar value.

Molecule: CC(C)(CC(=O)NCC(=O)N1CCN(Cc2ccccc2OCc2ccc(Br)cc2)CC1)C1CCCCC1 [Compound 1138]
Tested On: vesicular stomatitis virus particles (VSV) pseudotyped with EboV Zaire GP
pIC50: < 5.70

Molecule: O=C(CC12CC3CC(C1)CC(n1cncn1)(C3)C2)NCC(=O)N1CCN(Cc2ccccc2OCc2ccc(Br)cc2)CC1 [Compound 1246]
Tested On: vesicular stomatitis virus particles (VSV) pseudotyped with EboV Zaire GP
pIC50: > 5.70

Molecule: O=C(NCC(=O)N1CCN(Cc2cc(Br)ccc2Cl)CC1)C1C2CC(F)(F)CC21 (centres unmarked) [Compound 1356]
Tested On: vesicular stomatitis virus particles (VSV) pseudotyped with EboV Zaire GP
pIC50: < 5.70

Molecule: [2H]C([2H])(c1cc(Cl)cc2cc[nH]c12)N1CCN(C(=O)CNC(=O)CC2CCC(F)(F)CC2)CC1 [Compound 1433]
Tested On: vesicular stomatitis virus particles (VSV) pseudotyped with EboV Zaire GP
pIC50: < 5.30

Molecule: Nc1ccc(Br)cc1CN1CCN(C(=O)CNC(=O)C2C3CC(F)(F)CC32)CC1 (centres unmarked) [Compound 1362]
Tested On: vesicular stomatitis virus particles (VSV) pseudotyped with EboV Zaire GP
pIC50: < 5.70

Molecule: COC(=O)c1ccc(COc2ccccc2CN2CCN(C(=O)CNC(=O)CC34CC5CC(C3)CC(C(=O)O)(C5)C4)CC2)cc1 [Compound 1277]
Tested On: vesicular stomatitis virus particles (VSV) pseudotyped with EboV Zaire GP
pIC50: < 5.70

Molecule: O=C(CC1CCC(F)(F)CC1)NCC(=O)N1CCN(Cc2cc(Cl)cc(Cl)c2)CC1 [Compound 1383]
Tested On: vesicular stomatitis virus particles (VSV) pseudotyped with EboV Zaire GP
pIC50: < 5.70

Molecule: COC(=O)c1ccc(COc2ccccc2C(C)N2CCN(C(=O)CNC(=O)CC34CC5CC(CC(C5)C3)C4)CC2)cc1 (centres unmarked) [Compound 1122]
Tested On: vesicular stomatitis virus particles (VSV) pseudotyped with EboV Zaire GP
pIC50: ~5.70
